- experiment.description: Dark toxicity against human Caco-2 cells assessed as reduction in cell viability incubated for 24 hrs by MTT assay
- Format: cell-based
Entries and their IC50 at 24 h
metric: IC50 at 24 h (nM)

| smiles.entry | units | comparative.sign | observed.result |
| --- | --- | --- | --- |
| CCN1/C(=C/C2=C([O-])C(=C/C3=[N+](CC)c4ccc5ccccc5c4C3(C)C)/C2=O)C(C)(C)c2c1ccc1ccccc21 | nM | > | 10000 |
| CCCCCCN1/C(=C/C2=C(NCc3ccccn3)C(=C/C3=[N+](CCCCCC)c4ccc5ccccc5c4C3(C)C)/C2=O)C(C)(C)c2c1ccc1ccccc21.[I-] | nM | > | 10000 |
| CCN1/C(=C/C2=C(NCc3ccccn3)C(=C/C3=[N+](CC)c4ccc5ccccc5c4C3(C)C)/C2=O)C(C)(C)c2c1ccc1ccccc21.[I-] | nM | = | 2020 |
| CCN1/C(=C/C2=C(N(Cc3ccccn3)Cc3ccccn3)C(=C/C3=[N+](CC)c4ccc5ccccc5c4C3(C)C)/C2=O)C(C)(C)c2c1ccc1ccccc21.[I-] | nM | = | 328 |
| CCCCCCN1/C(=C/C2=C(N(Cc3ccccn3)Cc3ccccn3)C(=C/C3=[N+](CCCCCC)c4ccc5ccccc5c4C3(C)C)/C2=O)C(C)(C)c2c1ccc1ccccc21.[I-] | nM | = | 2490 |
